- Test system: SK-MEL-5 melanoma
- Run description: NCI-60 one-dose screen, 48 h
- Protocol conditions: 10 µM unless noted
About 83,000 compounds went through this panel and 20% of them were active in at least one assay; those are over-represented in the sample as a whole. Active and inactive are the calls of the source. How the source made its calls: active means growth percent below 10; inactive means the rest.
Pick one and only one: active, inactive

Worked set:
| Compound structure | Category |
| --- | --- |
| O=C(Nc1ccc(Cl)cc1)Nc1ccc(Oc2nncc3ccccc23)cc1 | active |
| O=C(/C=C/c1ccccc1Cl)c1ccc(O)cc1 | inactive |
| NC(N)=N/N=C(/c1ccccc1)c1ccc(Cl)cc1 | inactive |
| O=[N+]([O-])c1ccc2c(c1)S(=O)c1cc([N+](=O)[O-])ccc1N2 | inactive |
| Cc1cccc(Cl)c1NC(=O)c1ccc2nc(NC(=O)NC3CC(C)(C)NC(C)(C)C3)sc2c1 | inactive |
| NC(N)=NC(N)=NCCCc1ccccc1 | inactive |

Ask: Hi, sorry to bother you, what did the test record for "Cc1cc(CC(=O)O)n(C)c1C(=O)c1ccc(Cl)cc1" ?
Result: inactive

Ask: Hi, sorry to bother you, what did the test record for "CCOC(=O)c1cc(-c2cccnc2)nc2c(Cl)cc(Cl)cc12" ?
Result: inactive

Ask: Hi, sorry to bother you, what did the test record for "CN(C)c1nc(N)nc(Cn2c(-c3nonc3N)nc3ccccc32)n1" ?
Result: inactive

---

- Test system: MCF7 breast
- Run description: NCI-60 one-dose screen, 48 h (100 = growth as untreated, 0 = no growth, -100 = all killed)
- Protocol conditions: 10 µM unless noted
The panel holds about 83,000 compounds, 20% with a hit somewhere; the sample as a whole holds those more often.
Form field: growth (one value per entry).
Please state the figure in %; there is no need to write the unit.

Answered examples (2):
| Compound structure | System | Metric | Observed value |
| --- | --- | --- | --- |
| O=C(CN1CCCCC1)Sc1nnc2sc3ccccc3n12 | MCF7 breast | growth | 92.9 |
| CCCCOc1ccc(C(C)(C)c2ccc(OCCCC)cc2)cc1 | MCF7 breast | growth | 104 |

Proceeding to the next molecule to report its growth.
Ask: Hello, I am looking for reported growth with MCF7 breast for "COc1cc(NC(=O)c2cc3ccccc3cc2O)c(OC)cc1Cl" . Could you help?
Result: 2.91

---

- Test system: SNB-19 CNS
- Run description: NCI-60 one-dose screen, 48 h (100 = growth as untreated, 0 = no growth, -100 = all killed)
- Protocol conditions: 10 µM unless noted
Compounds without any hit were thinned out: in the full panel of roughly 83,000, 20% have a hit.
Consider the cut-off 90%. If the recorded growth is strictly smaller, the label is fulfilled; if not, the label is not fulfilled.

Worked set:
| Compound | Category |
| --- | --- |
| Cc1cc(N2CCOCC2)nc(N2CCOCC2)n1 | not fulfilled |
| Nc1nc(Cl)c2[nH]cnc2n1 | not fulfilled |
| CC(C)(C)c1ccc(C(O)CCCN2CCC(C(O)(c3ccccc3)c3ccccc3)CC2)cc1 (configuration not stated) | fulfilled |

Ask: Here's an entry: "C=CCOc1ccc2c(c1)CC[C@@H]1[C@@H]2CC[C@@]2(C)[C@H]1CC[C@]2(C)O" . Is its growth below 90%?
Result: not fulfilled

Ask: Here's an entry: "COc1ccc(C(=O)/C=C/c2c(Cl)nc3c(c(C)nn3-c3ccccc3)c2-c2ccc(Br)cc2)cc1" . Is its growth below 90%?
Result: not fulfilled

Ask: Here's an entry: "COC(=O)c1ccc2c(c1)nc(-c1ccc(O)c(OC)c1)n2-c1cc(C(C)(C)C)[nH]n1" . Is its growth below 90%?
Result: not fulfilled

Ask: Here's an entry: COc1cc(C2CC(=O)Nc3c2cc(Br)c2ccccc32)cc(Br)c1OC (configuration not stated) . Is its growth below 90%?
Result: fulfilled

Ask: Here's an entry: "O=C(/C=C/c1cc2ccccc2[nH]c1=O)c1ccc(O)cc1" . Is its growth below 90%?
Result: fulfilled

Ask: Here's an entry: "CC/C(=C\c1ccc(N(C)C)cc1)c1nc2ccccc2c(=O)[nH]1" . Is its growth below 90%?
Result: not fulfilled

Ask: Here's an entry: "O=C1Nc2ccc(F)cc2/C1=C/c1nc(-c2ccc(F)cc2)n2ccccc12" . Is its growth below 90%?
Result: not fulfilled

Ask: Here's an entry: CCC(c1ccccc1)c1noc(CCN(CC)CC)n1 (configuration not stated) . Is its growth below 90%?
Result: not fulfilled

Ask: Here's an entry: "CN(C)c1ccc(/C=C\c2ccnc3ccccc23)cc1" . Is its growth below 90%?
Result: fulfilled

Ask: Here's an entry: "COC(=O)CCC1=C(C)/C(=C/c2[nH]c(-c3ccc[nH]3)cc2OC)N=C1C" . Is its growth below 90%?
Result: fulfilled
